system: Danio rerio larvae (5 dpf); experiment: difference in excitability vs DMSO (percentage points); higher = more excitable than DMSO; conditions: 10 µM; exposure time 6 h
Counter-ions that a name gives are not always drawn.
difference in excitability values for the compounds below.
REPORTED PROPERTY: difference in excitability

{"COMPOUND": "CC(C)OC(=O)CCC/C=C\\C[C@@H]1[C@@H](CC[C@@H](O)CCc2ccccc2)[C@H](O)C[C@@H]1O", "READOUT NUMBER": 1.84}
{"COMPOUND": "CC(=O)Oc1cc2c(s1)CCN(C(C(=O)C1CC1)c1ccccc1F)C2 (stereo not drawn)", "READOUT NUMBER": -1.17}
{"COMPOUND": "COc1c(C)c2c(c(O)c1C/C=C(\\C)CCC(=O)O)C(=O)OC2", "READOUT NUMBER": 2.6}
{"COMPOUND": "C=CC(N)CCC(=O)O (stereo not drawn)", "READOUT NUMBER": -1.24}
{"COMPOUND": "CN1CC(=O)N2[C@H](c3ccc4c(c3)OCO4)c3[nH]c4ccccc4c3C[C@@H]2C1=O", "READOUT NUMBER": 3.64}
{"COMPOUND": "Cc1ccc(C(=O)c2cc(O)c(O)c([N+](=O)[O-])c2)cc1", "READOUT NUMBER": 5.24}
{"COMPOUND": "COc1cc2nc(N3CCN(C(=O)c4ccco4)CC3)nc(N)c2cc1OC [Prazosin (hydrochloride)]", "READOUT NUMBER": 20.4}
{"COMPOUND": "Nc1nc(NC2CC2)c2ncn([C@H]3C=C[C@@H](CO)C3)c2n1 [Abacavir (sulfate)]", "READOUT NUMBER": -1.01}
{"COMPOUND": "CC(=O)N[C@@H](CS)C(=O)O", "READOUT NUMBER": -2.2}
{"COMPOUND": "COc1cc(C(=O)NCc2ccc(OCCN(C)C)cc2)cc(OC)c1OC [Trimethobenzamide (hydrochloride)]", "READOUT NUMBER": -3.22}
{"COMPOUND": "Nc1nc(=O)n([C@@H]2CS[C@H](CO)O2)cc1F", "READOUT NUMBER": 1.12}
{"COMPOUND": "C[C@H]1COc2c(N3CCN(C)CC3)c(F)cc3c(=O)c(C(=O)O)cn1c23", "READOUT NUMBER": -4.09}
{"COMPOUND": "C[C@]12CC[C@@H]3c4ccc(O)cc4C[C@@H](CCCCCCCCC[S+]([O-])CCCC(F)(F)C(F)(F)F)[C@H]3[C@@H]1CC[C@@H]2O (stereo partly drawn)", "READOUT NUMBER": 1.25}
{"COMPOUND": "Cc1[nH]cnc1CN1CCc2c(c3ccccc3n2C)C1=O [Alosetron (hydrochloride)]", "READOUT NUMBER": -3.91}
{"COMPOUND": "O=C1NC(=O)C(c2ccccc2)(c2ccccc2)N1", "READOUT NUMBER": -0.551}
{"COMPOUND": "Cc1ccccc1N1C(=O)c2cc(S(N)(=O)=O)c(Cl)cc2NC1C (stereo not drawn)", "READOUT NUMBER": 5.2}
{"COMPOUND": "CN(C)CCOC(c1ccc(Cl)cc1)c1ccccn1 (stereo not drawn) [Carbinoxamine (maleate)]", "READOUT NUMBER": 8.33}
{"COMPOUND": "CCOc1cc([C@@H](CS(C)(=O)=O)N2C(=O)c3cccc(NC(C)=O)c3C2=O)ccc1OC", "READOUT NUMBER": 0.408}

---

system: Danio rerio larvae (5 dpf); test: difference in combined optomotor response to red, green and blue moving lines vs DMSO (percentage points); higher = stronger optomotor response than DMSO; details: 10 µM; exposure time 6 h
Where a name gives a salt, the structure may show the parent alone.
Use -0.04 as the dividing line for difference, with the line itself on the 1 (yes) side and lower values as 0 (no).

{"COMPOUND": "CC(C)OC(=O)C(C)(C)Oc1ccc(C(=O)c2ccc(Cl)cc2)cc1 [Fenofibrate]", "TARGET OR TEST SYSTEM": "Danio rerio larvae (5 dpf)", "CLASSIFICATION": "0 (no)"}
{"COMPOUND": "CC(C)c1nc(CN(C)C(=O)N[C@H](C(=O)N[C@@H](Cc2ccccc2)C[C@H](O)[C@H](Cc2ccccc2)NC(=O)OCc2cncs2)C(C)C)cs1", "TARGET OR TEST SYSTEM": "Danio rerio larvae (5 dpf)", "CLASSIFICATION": "1 (yes)"}
{"COMPOUND": "Cc1cccc(C)c1OCC(C)N (stereo unspecified) [Mexiletine (hydrochloride)]", "TARGET OR TEST SYSTEM": "Danio rerio larvae (5 dpf)", "CLASSIFICATION": "1 (yes)"}
{"COMPOUND": "C[C@H]1C[C@@H]2[C@H]([C@@H](O)C[C@@]3(C)[C@H]2CC[C@]3(O)C(=O)CO)[C@@]2(C)C=CC(=O)C=C12", "TARGET OR TEST SYSTEM": "Danio rerio larvae (5 dpf)", "CLASSIFICATION": "1 (yes)"}
{"COMPOUND": "CCCNCC(O)COc1ccccc1C(=O)CCc1ccccc1 (stereo unspecified) [Propafenone (hydrochloride)]", "TARGET OR TEST SYSTEM": "Danio rerio larvae (5 dpf)", "CLASSIFICATION": "1 (yes)"}
{"COMPOUND": "Cn1cnc([N+](=O)[O-])c1Sc1ncnc2[nH]cnc12", "TARGET OR TEST SYSTEM": "Danio rerio larvae (5 dpf)", "CLASSIFICATION": "1 (yes)"}
{"COMPOUND": "CCc1cc2c(cc1CC)CC(NC[C@H](O)c1ccc(O)c3[nH]c(=O)ccc13)C2", "TARGET OR TEST SYSTEM": "Danio rerio larvae (5 dpf)", "CLASSIFICATION": "0 (no)"}
{"COMPOUND": "OCCN1C[C@H](O)[C@@H](O)[C@H](O)[C@H]1CO", "TARGET OR TEST SYSTEM": "Danio rerio larvae (5 dpf)", "CLASSIFICATION": "1 (yes)"}
{"COMPOUND": "O=c1[nH]c(=O)n([C@H]2C[C@H](O)[C@@H](CO)O2)cc1I", "TARGET OR TEST SYSTEM": "Danio rerio larvae (5 dpf)", "CLASSIFICATION": "1 (yes)"}
{"COMPOUND": "CC(=O)CC(c1ccccc1)c1c(O)c2ccccc2oc1=O (racemic) [(±)-Warfarin]", "TARGET OR TEST SYSTEM": "Danio rerio larvae (5 dpf)", "CLASSIFICATION": "0 (no)"}
{"COMPOUND": "Brc1c(NC2=NCCN2)ccc2nccnc12 [Brimonidine (tartrate)]", "TARGET OR TEST SYSTEM": "Danio rerio larvae (5 dpf)", "CLASSIFICATION": "1 (yes)"}
{"COMPOUND": "O=C(O)C[C@H](O)C[C@H](O)/C=C/c1c(C2CC2)nc2ccccc2c1-c1ccc(F)cc1 [Pitavastatin (calcium salt)]", "TARGET OR TEST SYSTEM": "Danio rerio larvae (5 dpf)", "CLASSIFICATION": "1 (yes)"}
{"COMPOUND": "CN(C)CCCC1(c2ccc(F)cc2)OCc2cc(C#N)ccc21 (stereo unspecified) [Citalopram (hydrobromide)]", "TARGET OR TEST SYSTEM": "Danio rerio larvae (5 dpf)", "CLASSIFICATION": "0 (no)"}
{"COMPOUND": "O=C(O)COCCN1CCN([C@H](c2ccccc2)c2ccc(Cl)cc2)CC1 [(R)-Cetirizine (hydrochloride)]", "TARGET OR TEST SYSTEM": "Danio rerio larvae (5 dpf)", "CLASSIFICATION": "1 (yes)"}
{"COMPOUND": "N#Cc1ccc(C(c2ccc(C#N)cc2)n2cncn2)cc1", "TARGET OR TEST SYSTEM": "Danio rerio larvae (5 dpf)", "CLASSIFICATION": "1 (yes)"}
{"COMPOUND": "CN(C/C=C/C#CC(C)(C)C)Cc1cccc2ccccc12 [Terbinafine (hydrochloride)]", "TARGET OR TEST SYSTEM": "Danio rerio larvae (5 dpf)", "CLASSIFICATION": "0 (no)"}
{"COMPOUND": "COc1ccnc(C[S+]([O-])c2nc3cc(OC(F)F)ccc3[nH]2)c1OC (stereo unspecified)", "TARGET OR TEST SYSTEM": "Danio rerio larvae (5 dpf)", "CLASSIFICATION": "1 (yes)"}
{"COMPOUND": "CC[C@H]1OC(=O)[C@H](C)[C@@H](O[C@H]2C[C@@](C)(OC)[C@@H](O)[C@H](C)O2)[C@H](C)[C@@H](O[C@@H]2O[C@H](C)C[C@H](N(C)C)[C@H]2O)[C@](C)(O)C[C@@H](C)CN(C)[C@H](C)[C@@H](O)[C@]1(C)O", "TARGET OR TEST SYSTEM": "Danio rerio larvae (5 dpf)", "CLASSIFICATION": "0 (no)"}
{"COMPOUND": "C[C@H](CS)C(=O)N1CCC[C@H]1C(=O)O", "TARGET OR TEST SYSTEM": "Danio rerio larvae (5 dpf)", "CLASSIFICATION": "1 (yes)"}
{"COMPOUND": "Cc1cn([C@H]2C[C@H](N=[N+]=[N-])[C@@H](CO)O2)c(=O)[nH]c1=O", "TARGET OR TEST SYSTEM": "Danio rerio larvae (5 dpf)", "CLASSIFICATION": "1 (yes)"}
{"COMPOUND": "Cc1cc(C2CCCCC2)n(O)c(=O)c1", "TARGET OR TEST SYSTEM": "Danio rerio larvae (5 dpf)", "CLASSIFICATION": "1 (yes)"}
{"COMPOUND": "O=C(O)CCNC(=O)c1ccc(/N=N/c2ccc(O)c(C(=O)O)c2)cc1 [Balsalazide]", "TARGET OR TEST SYSTEM": "Danio rerio larvae (5 dpf)", "CLASSIFICATION": "1 (yes)"}
{"COMPOUND": "CCCCCCCN(CC)CCCC(O)c1ccc(NS(C)(=O)=O)cc1 (racemic) [(±)-Ibutilide (hemifumarate)]", "TARGET OR TEST SYSTEM": "Danio rerio larvae (5 dpf)", "CLASSIFICATION": "0 (no)"}
{"COMPOUND": "CCCN[C@H]1CCc2nc(N)sc2C1 [(S)-Pramipexole (hydrochloride)]", "TARGET OR TEST SYSTEM": "Danio rerio larvae (5 dpf)", "CLASSIFICATION": "1 (yes)"}
{"COMPOUND": "C=CC[N+]1([C@H]2C[C@H]3[C@@H]4CC[C@H]5C[C@H](O)[C@@H](N6CCOCC6)C[C@]5(C)[C@H]4CC[C@]3(C)[C@H]2OC(C)=O)CCCC1 [Rocuronium (bromide)]", "TARGET OR TEST SYSTEM": "Danio rerio larvae (5 dpf)", "CLASSIFICATION": "0 (no)"}
{"COMPOUND": "CC(=O)N(CC(O)CO)c1c(I)c(C(=O)NCC(O)CO)c(I)c(C(=O)NCC(O)CO)c1I (stereo unspecified) [Iohexol]", "TARGET OR TEST SYSTEM": "Danio rerio larvae (5 dpf)", "CLASSIFICATION": "0 (no)"}
{"COMPOUND": "CC(=O)NO [Acetohydroxamic Acid]", "TARGET OR TEST SYSTEM": "Danio rerio larvae (5 dpf)", "CLASSIFICATION": "0 (no)"}
{"COMPOUND": "C[C@]12CC[C@@H]3c4ccc(O)cc4C[C@@H](CCCCCCCCC[S+]([O-])CCCC(F)(F)C(F)(F)F)[C@H]3[C@@H]1CC[C@@H]2O (stereo partly specified)", "TARGET OR TEST SYSTEM": "Danio rerio larvae (5 dpf)", "CLASSIFICATION": "1 (yes)"}
{"COMPOUND": "OCCN1CCN(CCCN2c3ccccc3Sc3ccc(C(F)(F)F)cc32)CC1 [Fluphenazine (hydrochloride)]", "TARGET OR TEST SYSTEM": "Danio rerio larvae (5 dpf)", "CLASSIFICATION": "0 (no)"}
{"COMPOUND": "CO/N=C(\\C(=O)N[C@@H]1C(=O)N2C(C(=O)O)=C(COC(N)=O)CS[C@H]12)c1ccco1 [Cefuroxime (sodium salt)]", "TARGET OR TEST SYSTEM": "Danio rerio larvae (5 dpf)", "CLASSIFICATION": "1 (yes)"}

Cited source: the supplement of paper PMC10515830
